test system: Rh18 complex spheroid viability, percent test/control; assay: Anticancer human tumor Rh18 cell line growth inhibition [Asc]; conditions: second compound 1 µM; first compound 0.316 µM; hits give low values;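 also: spheroids exposed to compound for 7 days; 100% = DMSO vehicle control wells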
viability, T/C values for the molecules below.

{"molecule": "CCN1CCN(Cc2ccc(Nc3ncc(F)c(-c4cc(F)c5nc(C)n(C(C)C)c5c4)n3)nc2)CC1 + Cc1c(S(C)(=O)=O)c(-c2cc(F)cc(N3CCN(c4ccc(NS(=O)(=O)c5ccc(NC(CCN6CCC(C(=O)OCCCP(=O)(O)O)CC6)CSc6ccccc6)c(S(=O)(=O)C(F)(F)F)c5)cc4)CC3)c2)c(-c2ccc(Cl)cc2)n1C(C)C", "viability, T/C": "8.27%"}
{"molecule": "C=CC(=O)N1CCN(c2nc(=O)n(-c3c(C)ccnc3C(C)C)c3nc(-c4c(O)cccc4F)c(F)cc23)C(C)C1 (configuration not stated) + Cc1c(S(C)(=O)=O)c(-c2cc(F)cc(N3CCN(c4ccc(NS(=O)(=O)c5ccc(NC(CCN6CCC(C(=O)OCCCP(=O)(O)O)CC6)CSc6ccccc6)c(S(=O)(=O)C(F)(F)F)c5)cc4)CC3)c2)c(-c2ccc(Cl)cc2)n1C(C)C", "viability, T/C": "8.62%"}
{"molecule": "COc1c(OCCCN2CCOCC2)ccc2c3n(c(=NC(=O)c4cnc(N)nc4)nc12)CCN3 + CNC(C)C(=O)NC1CN(S(=O)(=O)c2cccc(S(=O)(=O)N3CCC4CCC(C(=O)NC(c5ccccc5)c5ccccc5)N4C(=O)C(NC(=O)C(C)NC)C3)c2)CCC2CCC(C(=O)NC(c3ccccc3)c3ccccc3)N2C1=O", "viability, T/C": "1.17%"}
{"molecule": "COc1c(OCCCN2CCOCC2)ccc2c3n(c(=NC(=O)c4cnc(N)nc4)nc12)CCN3 + Cc1c(S(C)(=O)=O)c(-c2cc(F)cc(N3CCN(c4ccc(NS(=O)(=O)c5ccc(NC(CCN6CCC(C(=O)OCCCP(=O)(O)O)CC6)CSc6ccccc6)c(S(=O)(=O)C(F)(F)F)c5)cc4)CC3)c2)c(-c2ccc(Cl)cc2)n1C(C)C", "viability, T/C": "0.44%"}
{"molecule": "O=C(c1ccc(F)c(F)c1Nc1ccc(I)cc1F)N1CC(O)([C@@H]2CCCCN2)C1 + Cc1c(S(C)(=O)=O)c(-c2cc(F)cc(N3CCN(c4ccc(NS(=O)(=O)c5ccc(NC(CCN6CCC(C(=O)OCCCP(=O)(O)O)CC6)CSc6ccccc6)c(S(=O)(=O)C(F)(F)F)c5)cc4)CC3)c2)c(-c2ccc(Cl)cc2)n1C(C)C", "viability, T/C": "3.29%"}
{"molecule": "O=C(c1cc(Cc2n[nH]c(=O)c3ccccc23)ccc1F)N1CCN(C(=O)C2CC2)CC1 + Cc1c(S(C)(=O)=O)c(-c2cc(F)cc(N3CCN(c4ccc(NS(=O)(=O)c5ccc(NC(CCN6CCC(C(=O)OCCCP(=O)(O)O)CC6)CSc6ccccc6)c(S(=O)(=O)C(F)(F)F)c5)cc4)CC3)c2)c(-c2ccc(Cl)cc2)n1C(C)C", "viability, T/C": "9.85%"}

Now for the molecule whose viability, T/C we want.
Query: Any idea what viability, T/C was measured for C=C(F)C(=O)N1CCN(c2nc(OCC3CCCN3C)nc3c2CCN(c2cccc4cccc(Cl)c24)C3)CC1CC#N (configuration not stated) + CNC(C)C(=O)NC1CN(S(=O)(=O)c2cccc(S(=O)(=O)N3CCC4CCC(C(=O)NC(c5ccccc5)c5ccccc5)N4C(=O)C(NC(=O)C(C)NC)C3)c2)CCC2CCC(C(=O)NC(c3ccccc3)c3ccccc3)N2C1=O ?
Reply: 37.7%
